Can you tell me activation at 1 µM for the items I'm about to list?
# tested-system: PPARγ receptors (Homo sapiens, UniProt P37231)
# Sequence (P37231 whole entry): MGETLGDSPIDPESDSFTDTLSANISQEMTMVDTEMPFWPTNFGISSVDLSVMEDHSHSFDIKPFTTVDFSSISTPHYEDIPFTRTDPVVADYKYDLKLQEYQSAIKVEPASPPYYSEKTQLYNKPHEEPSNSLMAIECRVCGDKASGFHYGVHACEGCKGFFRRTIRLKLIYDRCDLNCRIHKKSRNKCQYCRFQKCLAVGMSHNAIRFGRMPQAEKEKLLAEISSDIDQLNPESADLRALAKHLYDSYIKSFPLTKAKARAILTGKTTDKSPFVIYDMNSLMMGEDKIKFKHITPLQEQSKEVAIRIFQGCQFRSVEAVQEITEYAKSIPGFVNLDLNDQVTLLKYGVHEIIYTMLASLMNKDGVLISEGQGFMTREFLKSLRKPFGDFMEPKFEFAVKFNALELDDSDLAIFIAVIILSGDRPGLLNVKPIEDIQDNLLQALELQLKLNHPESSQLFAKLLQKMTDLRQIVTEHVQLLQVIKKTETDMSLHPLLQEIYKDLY
# procedure-details: PPARγ transactivation test
# Type: cell-based
# Design: expressed in transfected cells
# setup-conditions: concentration of 1 μM, relative to SB 219994 = 100%
Your answer should be a plain number; it is taken to be in %.

// query Using known records, supply activation at 1 µM for CCCCCCCCC(=O)N(C)Cc1cccc(-c2ccc(CC3SC(=O)NC3=O)cc2)c1 (stereo not shown) [Example 12]
// result 60.4

// query Using known records, supply activation at 1 µM for CN(Cc1cccc(-c2ccc(CC3SC(=O)NC3=O)cc2)c1)C(=O)OC(C)(C)C (stereo not shown) [Example 11]
// result 74.5

// query Using known records, supply activation at 1 µM for CN(Cc1ccccc1)C(=O)c1cccc(-c2ccc(CC3SC(=O)NC3=O)cc2)c1 (stereo not shown) [Example 30]
// result 80.3

// query Using known records, supply activation at 1 µM for CCCCCCCCCC(=O)N(C)Cc1cccc(-c2ccc(CC3SC(=O)NC3=O)cc2)c1 (stereo not shown) [Example 32]
// result 74.9

Reference source for all entries: patent US6927228B2
